Target: human A1 adenosine receptor (Homo sapiens, UniProt P30542)
Sequence (P30542 1-326): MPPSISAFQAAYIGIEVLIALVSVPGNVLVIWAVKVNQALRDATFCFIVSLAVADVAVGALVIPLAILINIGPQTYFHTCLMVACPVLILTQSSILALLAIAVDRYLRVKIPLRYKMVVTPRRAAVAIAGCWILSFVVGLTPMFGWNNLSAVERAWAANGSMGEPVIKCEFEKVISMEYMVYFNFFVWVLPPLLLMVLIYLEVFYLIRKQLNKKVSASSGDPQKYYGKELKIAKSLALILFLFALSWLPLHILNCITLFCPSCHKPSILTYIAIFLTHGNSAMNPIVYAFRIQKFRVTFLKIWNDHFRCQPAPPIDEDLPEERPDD
Assay: Radioligand binding, human A1 AR, CHO membranes (Table 1)
Conditions: read-out: A1 Ki; species H (human)
MEASURED ATTRIBUTE: Ki (nM)

(P) CNC(=O)[C@@]12C[C@@H]1[C@@H](n1cnc3c(NC)nc(Cl)nc31)[C@H](O)[C@@H]2O
(Q) CNC(=O)[C@@]12C[C@@H]1[C@@H](n1cnc3c(NCc4cccc(I)c4)ncnc31)[C@H](O)[C@@H]2O
(R) CNC(=O)[C@@]12C[C@@H]1[C@@H](n1cnc3c(NCc4cccc(I)c4)nc(Cl)nc31)[C@H](O)[C@@H]2O
Req: Order field: Ki | Direction: descending (largest first) Reply format: the labels, ordered as requested.
Resp: P, Q, R

====

Measured Ki accompanies every entry in the list below.
Target: human A1 receptors (Homo sapiens, UniProt P30542)
Construct: expressed in transfected cells; host or cells: CHO
Sequence (P30542 1-326): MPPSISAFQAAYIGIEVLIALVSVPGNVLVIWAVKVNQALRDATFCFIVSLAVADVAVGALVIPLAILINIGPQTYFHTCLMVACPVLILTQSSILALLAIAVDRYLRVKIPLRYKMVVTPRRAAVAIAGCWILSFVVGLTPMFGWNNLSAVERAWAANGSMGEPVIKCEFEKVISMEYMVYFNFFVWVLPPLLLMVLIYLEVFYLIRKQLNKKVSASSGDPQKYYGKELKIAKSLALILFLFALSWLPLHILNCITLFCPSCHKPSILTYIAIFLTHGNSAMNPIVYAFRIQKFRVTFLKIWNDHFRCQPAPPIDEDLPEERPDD
Assay: Binding at human A1 receptor, CHO membranes (Example 4)
Settings: read-out: Affinity (Ki nM) A1
Record the value in nM, omitting the unit from your answer.

| COMPOUND | VALUE REPORTED |
| --- | --- |
| COc1ccc(OC)c(CNc2nc(Cl)nc3c2ncn3C2C(O)C(O)C3CC32)c1 (centres unmarked) [Compound 111b] | 3000 |

Req: # query: Ki of entry OC1C(O)C(n2cnc3c(NC4CC4c4ccccc4)nc(Cl)nc32)C2CC12 (centres unmarked) [Compound 113b]
Resp: 1790

====

Molecular target: mA3AR (Mus musculus)
Construct: expressed in transfected cells
Sequence (Q61618 1-319): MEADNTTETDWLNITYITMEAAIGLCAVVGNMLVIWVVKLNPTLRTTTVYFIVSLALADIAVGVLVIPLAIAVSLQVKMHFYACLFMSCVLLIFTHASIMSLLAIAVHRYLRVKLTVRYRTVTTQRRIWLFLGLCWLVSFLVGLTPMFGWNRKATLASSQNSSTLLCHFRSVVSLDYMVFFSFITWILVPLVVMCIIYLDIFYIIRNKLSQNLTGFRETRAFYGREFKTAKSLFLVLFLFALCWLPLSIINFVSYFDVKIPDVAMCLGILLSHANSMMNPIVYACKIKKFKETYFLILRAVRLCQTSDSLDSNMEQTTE
Assay: Competition binding at mA3AR, HEK293 membranes (Example 8)
Details: read-out: Affinity (Ki, nM) mA3
MEASURED ATTRIBUTE: Ki (nM)

A selection of reference data follows.
| MOLECULE | VALUE UNIT | VALUE REPORTED |
| --- | --- | --- |
| CNC(=O)[C@@]12C[C@@H]1[C@@H](n1cnc3c(NCc4cccc(Cl)c4)nc(C#Cc4ccccc4)nc31)[C@H](O)[C@@H]2O [Compound 327] | nM | 16 |
| CNC(=O)[C@@]12C[C@@H]1[C@@H](n1cnc3c(NCc4cccc(Cl)c4)nc(C#Cc4ccccc4Cl)nc31)[C@H](O)[C@@H]2O [Compound 329] | nM | 7.5 |
| CNC(=O)[C@@]12C[C@@H]1[C@@H](n1cnc3c(NC)nc(C#Cc4ccccc4Cl)nc31)[C@H](O)[C@@H]2O [Compound 314] | nM | 55 |
| CNC(=O)[C@@]12C[C@@H]1[C@@H](n1cnc3c(NC)nc(C#Cc4ccc(F)cc4)nc31)[C@H](O)[C@@H]2O [Compound 313] | nM | 66 |
| CNC(=O)[C@@]12C[C@@H]1[C@@H](n1cnc3c(NCc4cccc(Cl)c4)nc(C#Cc4ccc(N)cc4)nc31)[C@H](O)[C@@H]2O [Compound 332a] | nM | 17 |

(a) CNC(=O)[C@@]12C[C@@H]1[C@@H](n1cnc3c(NCc4cccc(Cl)c4)nc(C#Cc4ccc(-c5ccccc5)cc4)nc31)[C@H](O)[C@@H]2O [Compound 335]
(b) CNC(=O)[C@@]12C[C@@H]1[C@@H](n1cnc3c(NCc4cccc(Cl)c4)nc(C#Cc4ccc(F)cc4)nc31)[C@H](O)[C@@H]2O [Compound 328]
Req: Of a versus b , which is the one with smaller reported Ki? Reply with the label of the item you choose.
Resp: b
(b: 7.5 nM, a: 22 nM)

====

Target: hA1AR (Homo sapiens)
Construct: expressed in transfected cells; host or cells: CHO
Sequence (P30542 1-326): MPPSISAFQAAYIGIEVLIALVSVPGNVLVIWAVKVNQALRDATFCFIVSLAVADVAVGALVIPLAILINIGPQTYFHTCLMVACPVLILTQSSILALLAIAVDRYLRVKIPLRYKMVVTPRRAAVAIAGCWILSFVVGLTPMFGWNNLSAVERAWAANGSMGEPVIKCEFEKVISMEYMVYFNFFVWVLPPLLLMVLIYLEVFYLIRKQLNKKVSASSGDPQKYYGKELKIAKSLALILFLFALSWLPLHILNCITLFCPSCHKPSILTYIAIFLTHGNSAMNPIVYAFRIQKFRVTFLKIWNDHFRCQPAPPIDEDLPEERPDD
Experiment: Binding at hA1AR, CHO membranes (Example 7)
Details: read-out: % inhibition hA1
MEASURED ATTRIBUTE: inhibition at 10 µM (%)

A selection of reference data follows.
| COMPOUND | VALUE UNIT | inhibition at 10 µM |
| --- | --- | --- |
| CNC(=O)[C@@]12C[C@@H]1[C@@H](n1cnc3c(NC)nc(C#Cc4ccccc4Cl)nc31)[C@H](O)[C@@H]2O | % | 22 |
| CNC(=O)[C@@]12C[C@@H]1[C@@H](n1cnc3c(NCc4cccc(Cl)c4)nc(C#Cc4ccc(N)cc4)nc31)[C@H](O)[C@@H]2O [Compound 332a] | % | 2 |
| CNC(=O)[C@@]12C[C@@H]1[C@@H](n1cnc3c(NC)nc(C#Cc4ccc(F)cc4)nc31)[C@H](O)[C@@H]2O | % | 27 |

(I) CNC(=O)[C@@]12C[C@@H]1[C@@H](n1cnc3c(NC)nc(C#Cc4cccc(F)c4)nc31)[C@H](O)[C@@H]2O
(II) CNC(=O)[C@@]12C[C@@H]1[C@@H](n1cnc3c(NC)nc(C#Cc4cc(F)cc(F)c4)nc31)[C@H](O)[C@@H]2O
Req: Given the listed records, identify the one among I and II with higher inhibition at 10 µM. Reply with the label of the item you choose.
Resp: I
(I: 14%, II: 6%)

====

Biological target: hA2AAR (Homo sapiens, UniProt P29274)
Construct: expressed in transfected cells
Sequence (P29274 whole entry): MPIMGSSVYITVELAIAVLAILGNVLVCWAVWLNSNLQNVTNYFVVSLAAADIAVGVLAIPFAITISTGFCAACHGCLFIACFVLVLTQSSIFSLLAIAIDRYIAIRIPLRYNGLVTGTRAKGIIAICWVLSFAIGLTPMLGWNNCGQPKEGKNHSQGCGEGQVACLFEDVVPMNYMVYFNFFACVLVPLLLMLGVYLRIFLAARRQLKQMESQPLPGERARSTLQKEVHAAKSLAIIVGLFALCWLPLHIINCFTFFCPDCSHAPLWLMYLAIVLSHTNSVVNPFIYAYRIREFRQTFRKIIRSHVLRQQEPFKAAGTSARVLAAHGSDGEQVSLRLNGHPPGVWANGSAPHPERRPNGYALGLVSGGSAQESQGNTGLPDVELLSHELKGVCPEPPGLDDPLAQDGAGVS
Assay: Binding at hA2AAR, HEK-293 membranes (Example 7)
Conditions: read-out: % inhibition hA2A
MEASURED ATTRIBUTE: inhibition at 10 µM (%)

| COMPOUND | VALUE UNIT | VALUE REPORTED |
| --- | --- | --- |
| CNC(=O)[C@@]12C[C@@H]1[C@@H](n1cnc3c(NC)nc(C#Cc4cccc5ccccc45)nc31)[C@H](O)[C@@H]2O [Compound 325] | % | 34 |
| CNC(=O)[C@@]12C[C@@H]1[C@@H](n1cnc3c(NCc4cccc(Cl)c4)nc(C#Cc4cccc(C(=O)O)c4)nc31)[C@H](O)[C@@H]2O [Compound 333] | % | 38 |
| CNC(=O)[C@@]12C[C@@H]1[C@@H](n1cnc3c(NC)nc(C#Cc4cc5ccccc5c5ccccc45)nc31)[C@H](O)[C@@H]2O [Compound 326] | % | 52 |
| CNC(=O)[C@@]12C[C@@H]1[C@@H](n1cnc3c(NCc4cccc(Cl)c4)nc(C#Cc4ccc5ccc6cccc7ccc4c5c67)nc31)[C@H](O)[C@@H]2O [Compound 336] | % | 66 |
